substrate: N[C@@H](Cc1ccccc1)C(=O)O; assay: purified protein; type: biochemical, Escherichia coli; settings: co-substrate α-ketoglutarate (fixed, 0.1563–1.25 mM range), 16 µM PLP, 5 mM NAD+, 100 mM potassium phosphate pH 8, 37 °C
For each of the proteins below, state its kcat/Km.
Report only the number, with the unit M⁻¹ s⁻¹ understood.

Input: Assign kcat/Km to the following record: E. coli aspartate aminotransferase (AAT) (Escherichia coli K-12; K37Y/N285S/N64L/T104S/T43I/V35L) (protein, full-length, N-terminal His-tag, expressed in E. coli BL21-Gold (DE3), Ni-NTA purified; 90 kDa homodimer, PLP-dependent) MFENITAAPADPILGLADLFRADERPGKINLGIGLYYDETGKIPVLTSVKKAEQYLLENETTKLYLGIDGIPEFGRCTQELLFGKGSALINDKRARTAQTPGGSGALRVAADFLAKNTSVKRVWVSNPSWPNHKSVFNSAGLEVREYAYYDAENHTLDFDALINSLNEAQAGDVVLFHGCCHNPTGIDPTLEQWQTLAQLSVEKGWLPLFDFAYQGFARGLEEDAEGLRAFAAMHKELIVASSYSKNFGLYNERVGACTLVAADSETVDRAFSQMKAAIRANYSSPPAHGASVVATILSNDALRAIWEQELTDMRQRIQRMRQLFVNTLQEKGANRDFSFIIKQNGMFSFSGLTKEQVLRLREEFGVYAVASGRVNVAGMTPDNMAPLCEAIVAVL
Output: 33000

Input: Using known records, supply kcat/Km for E. coli aspartate aminotransferase (AAT) (Escherichia coli K-12; K37F/N64Y/T43I) (protein, full-length, N-terminal His-tag, expressed in E. coli BL21-Gold (DE3), Ni-NTA purified; 90 kDa homodimer, PLP-dependent) MFENITAAPADPILGLADLFRADERPGKINLGIGVYFDETGKIPVLTSVKKAEQYLLENETTKYYLGIDGIPEFGRCTQELLFGKGSALINDKRARTAQTPGGTGALRVAADFLAKNTSVKRVWVSNPSWPNHKSVFNSAGLEVREYAYYDAENHTLDFDALINSLNEAQAGDVVLFHGCCHNPTGIDPTLEQWQTLAQLSVEKGWLPLFDFAYQGFARGLEEDAEGLRAFAAMHKELIVASSYSKNFGLYNERVGACTLVAADSETVDRAFSQMKAAIRANYSNPPAHGASVVATILSNDALRAIWEQELTDMRQRIQRMRQLFVNTLQEKGANRDFSFIIKQNGMFSFSGLTKEQVLRLREEFGVYAVASGRVNVAGMTPDNMAPLCEAIVAVL
Output: 41000
